- assay_text: Cytotoxicity measured as % loss of cells after 90 min
- Assay type: cell-based
- applied_conditions: rat
Collected Loss of cells values appear next to each entry.
Give the value, in units of %, as a plain number.

>  <molecule>
C#CCN(C)Cc1ccccc1.NC1C=C(c2ccccc2)CCC1 (centres undefined)

>  <Loss of cells [%]>
51

$$$$
>  <molecule>
CN1CC=C(c2ccccc2)CC1

>  <Loss of cells [%]>
58

$$$$
>  <molecule>
C#CCN(C)Cc1ccccc1.CN1CC=C(c2ccccc2)CC1

>  <Loss of cells [%]>
11

$$$$

Which Loss of cells reading was recorded for the molecule NC1C=C(c2ccccc2)CCC1 (centres undefined) ?
35
